target: T1, murine GPC3-his protein (murine, UniProt Q8CFZ4 25-558, limits assumed); assay: ELISA, murine GPC3-his coated; antibody 0.004 nM
T1 construct: Bought protein; also called mouse GPC3 protein; murine GPC3 protein; not shown: His tag
T1 sequence (Q8CFZ4 25-558 limits assumed): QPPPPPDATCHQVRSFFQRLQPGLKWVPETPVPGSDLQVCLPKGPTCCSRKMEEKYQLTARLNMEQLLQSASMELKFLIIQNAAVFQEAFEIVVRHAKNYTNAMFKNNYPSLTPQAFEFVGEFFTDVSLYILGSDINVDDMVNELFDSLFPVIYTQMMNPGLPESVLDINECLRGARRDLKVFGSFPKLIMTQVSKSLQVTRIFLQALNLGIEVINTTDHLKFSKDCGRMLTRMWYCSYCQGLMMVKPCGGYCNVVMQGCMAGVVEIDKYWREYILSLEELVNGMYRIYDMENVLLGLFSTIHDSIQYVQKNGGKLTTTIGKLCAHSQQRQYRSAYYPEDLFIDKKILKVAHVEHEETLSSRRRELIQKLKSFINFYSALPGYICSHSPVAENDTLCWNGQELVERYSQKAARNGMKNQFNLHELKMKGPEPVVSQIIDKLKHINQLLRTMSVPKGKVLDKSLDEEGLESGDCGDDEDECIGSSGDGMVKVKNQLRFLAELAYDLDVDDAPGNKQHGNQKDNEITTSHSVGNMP
Threshold rule: OD450 nm greater than or equal to 0.3 is Y; below that, N.

Would you say hAb001H1aL1b (antibody, human IgG1, V domains shown, Humanized F2.169.2, H1a+L1b) VH: EVQLVESGGGLVQPGGSLRLSCAASGFSFNTNAMNWVRQAPGKGLEWVGRIRSKSNNYATYYADSVKGRFTISRDDSKNSLYLQMNSLKTEDTAVYYCVRDGYYVLFAYWGQGTLVTVSS VL: DIVMTQTPLSLPVTPGEPASISCRFSQSIVNSNANTYLEWFLQKPGQSPQLLIYKVSNRFSGVPDRFSGSGSGTDFTLKISRVEAEDVGVYYCFQGSHVPFTFGQGTKLEIK shows OD450 nm at minimum 0.3?
Y

Would you say hAb001H1aL1 (antibody, human IgG1, V domains shown, Humanized F2.169.2, H1a+L1) VH: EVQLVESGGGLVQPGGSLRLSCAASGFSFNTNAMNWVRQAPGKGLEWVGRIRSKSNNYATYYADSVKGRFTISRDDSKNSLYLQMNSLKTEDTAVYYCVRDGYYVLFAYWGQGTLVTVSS VL: DIVMTQTPLSLPVTPGEPASISCRFSQSIVNSNGNTYLEWFLQKPGQSPQLLIYKVSNRFSGVPDRFSGSGSGTDFTLKISRVEAEDVGVYYCFQGSHVPFTFGQGTKLEIK shows OD450 nm at minimum 0.3?
Y

Would you say hAb001H2L1b (antibody, human IgG1, V domains shown, Humanized F2.169.2, H2+L1b) VH: EVQLVESGGGLVQPGGSLRLSCAASGFSFNTNAMNWVRQAPGKGLEWVGRIRSKSNNYATYYADSVKDRFTISRDDSKSSLYLQMNSLKTEDTAVYYCVRDGYYVLFAYWGQGTLVTVSS VL: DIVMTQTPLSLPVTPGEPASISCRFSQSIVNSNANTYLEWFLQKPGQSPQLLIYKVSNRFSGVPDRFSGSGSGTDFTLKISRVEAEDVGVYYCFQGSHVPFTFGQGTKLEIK shows OD450 nm at minimum 0.3?
Y

Would you say hAb001H1L1 (antibody, human IgG1, V domains shown, Humanized F2.169.2, H1+L1) VH: EVQLVESGGGLVQPGGSLRLSCAASGFSFNTNAMNWVRQAPGKGLEWVGRIRSKSNNYATYYADSVKDRFTISRDDSKNSLYLQMNSLKTEDTAVYYCVRDGYYVLFAYWGQGTLVTVSS VL: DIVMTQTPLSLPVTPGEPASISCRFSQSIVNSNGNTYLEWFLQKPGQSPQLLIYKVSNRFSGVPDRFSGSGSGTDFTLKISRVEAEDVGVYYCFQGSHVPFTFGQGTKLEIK shows OD450 nm at minimum 0.3?
Y

Would you say hAb001H2L1a (antibody, human IgG1, V domains shown, Humanized F2.169.2, H2+L1a) VH: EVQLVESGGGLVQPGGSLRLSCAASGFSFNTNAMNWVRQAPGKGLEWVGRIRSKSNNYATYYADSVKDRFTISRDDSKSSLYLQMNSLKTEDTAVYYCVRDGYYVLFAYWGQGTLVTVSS VL: DIVMTQTPLSLPVTPGEPASISCRFSQSIVNSDGNTYLEWFLQKPGQSPQLLIYKVSNRFSGVPDRFSGSGSGTDFTLKISRVEAEDVGVYYCFQGSHVPFTFGQGTKLEIK shows OD450 nm at minimum 0.3?
N
